# experiment_summary: Cmax in human patient with relapsed solid tumor at 20 mg/m'2, iv administered on days 1, 2, 8, 9, 15 and 16 of 28-day cycle over 2 to 10 mins measured on day 16 of cycle 1 by LC-MS/MS analysis
# Type: ADME, organism-based
# Design: route intravenous
# assay_setup: in vivo
parameter_measured: Cmax
Give the number first and the unit second.

What value of measured Cmax is listed for `CC(C)C[C@H](NC(=O)[C@H](CCc1ccccc1)NC(=O)CN1CCOCC1)C(=O)N[C@@H](Cc1ccccc1)C(=O)N[C@@H](CC(C)C)C(=O)[C@@]1(C)CO1` ? 3710 ng/mL

* * *

# experiment_summary: clinical
# assay_setup: human, plasma, po
# Description: AUC(infinity) in solid tumor patient at 2 mg, po administered as single dose followed by co-treatment with 27 mg/m2, iv carfilzomib over 2 to 10 mins on days 1, 2, 8, 9, 15 and 16 of single 28-day cycle measured on day 16
parameter_measured: AUC(0-inf)

What value of measured AUC(0-inf) is listed for `Cc1ncc2n1-c1ccc(Cl)cc1C(c1ccccc1F)=NC2` ? 59.9 ng·h/mL

Reference for the values: ChEMBL document CHEMBL3526139
